STUDY SYSTEM: T1, human CD122-Fc (AbroBio) (human, UniProt P14784 27-239)
T1 construct: also called IL-2Rβ; not shown: Fc part and any linker of the bought protein are not described; captured on an anti-human Fc sensor
T1 sequence: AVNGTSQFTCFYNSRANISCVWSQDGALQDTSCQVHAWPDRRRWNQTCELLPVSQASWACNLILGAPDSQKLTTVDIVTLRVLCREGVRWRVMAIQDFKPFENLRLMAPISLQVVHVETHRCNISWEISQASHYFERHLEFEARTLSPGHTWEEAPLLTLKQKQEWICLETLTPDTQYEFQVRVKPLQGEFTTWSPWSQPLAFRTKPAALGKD
EXPERIMENT NOTES: BLI (Octet RED96), CD122-Fc on AHC sensor, 400 nM hIL-2 polypeptide
Procedure: OCTET® RED96 was used to characterize the interactions of a human CD122-Fc (AbroBio) with a wild-type hIL-2 and hIL-2 muteins. Briefly, an anti-human Fc sensor (AHC) loaded with the human CD122 was dip into 400 nM of an hIL-2 polypeptide. The binding signaling of fusion protein A1 was normalized to 1.
binders and their reported CD122 Binding Response (A1 normalized to 1)
I'd appreciate a reply containing only the number, no unit.

Consider the following illustrative entries.
hIL-2-anti-HSA A64 (ligand, fused to anti-HSA VHH; also called hIL-2 mutein (T3A, R38N, L40T, F42A, E95N, C125S)) APASSSTKKTQLQLEHLLLDLQMILNGINNYKNPKLTNMTTAKFYMPKKATELKHLQCLEEELKPLEEVLNLAQSKNFHLRPRDLISNINVIVLNLKGSETTFMCEYADETATIVEFLNRWITFSQSIISTLTGSGGSGGSGGSGEVQLVESGGGLVQPGGSLRLSCAASGSTWSINTLAWYRQAPGKQRDLVARISSGGSTYYADSVKGRFTISRDNSKNTLYLQMNSLRAEDTAVYYCYAQSTWYPPSWGQGTLVTVSS ... 0.22
hIL-2-anti-HSA A67 (ligand, fused to anti-HSA VHH; also called hIL-2 mutein (K32E, F42C, V69C, D84T, C125S)) APTSSSTKKTQLQLEHLLLDLQMILNGINNYENPKLTRMLTCKFYMPKKATELKHLQCLEEELKPLEECLNLAQSKNFHLRPRTLISNINVIVLELKGSETTFMCEYADETATIVEFLNRWITFSQSIISTLTGSGGSGGSGGSGEVQLVESGGGLVQPGGSLRLSCAASGSTWSINTLAWYRQAPGKQRDLVARISSGGSTYYADSVKGRFTISRDNSKNTLYLQMNSLRAEDTAVYYCYAQSTWYPPSWGQGTLVTVSS ... 0.3
hIL-2-anti-HSA A69 (ligand, fused to anti-HSA VHH; also called hIL-2 mutein (K32E, F42C, V69C, S87D, C125S)) APTSSSTKKTQLQLEHLLLDLQMILNGINNYENPKLTRMLTCKFYMPKKATELKHLQCLEEELKPLEECLNLAQSKNFHLRPRDLIDNINVIVLELKGSETTFMCEYADETATIVEFLNRWITFSQSIISTLTGSGGSGGSGGSGEVQLVESGGGLVQPGGSLRLSCAASGSTWSINTLAWYRQAPGKQRDLVARISSGGSTYYADSVKGRFTISRDNSKNTLYLQMNSLRAEDTAVYYCYAQSTWYPPSWGQGTLVTVSS ... 1.93
hIL-2-anti-HSA A70 (ligand, fused to anti-HSA VHH; also called hIL-2 mutein (K32E, F42C, V69C, V91I, I92L, C125S)) APTSSSTKKTQLQLEHLLLDLQMILNGINNYENPKLTRMLTCKFYMPKKATELKHLQCLEEELKPLEECLNLAQSKNFHLRPRDLISNINILVLELKGSETTFMCEYADETATIVEFLNRWITFSQSIISTLTGSGGSGGSGGSGEVQLVESGGGLVQPGGSLRLSCAASGSTWSINTLAWYRQAPGKQRDLVARISSGGSTYYADSVKGRFTISRDNSKNTLYLQMNSLRAEDTAVYYCYAQSTWYPPSWGQGTLVTVSS ... 1.31
hIL-2-anti-HSA A61 (ligand, fused to anti-HSA VHH; also called hIL-2 mutein (T3A, H16N, R38N, L40T, F42A, C125S)) APASSSTKKTQLQLENLLLDLQMILNGINNYKNPKLTNMTTAKFYMPKKATELKHLQCLEEELKPLEEVLNLAQSKNFHLRPRDLISNINVIVLELKGSETTFMCEYADETATIVEFLNRWITFSQSIISTLTGSGGSGGSGGSGEVQLVESGGGLVQPGGSLRLSCAASGSTWSINTLAWYRQAPGKQRDLVARISSGGSTYYADSVKGRFTISRDNSKNTLYLQMNSLRAEDTAVYYCYAQSTWYPPSWGQGTLVTVSS ... 0.17

Consider the additional binder presented here.
The recorded CD122 Binding Response (A1 normalized to 1) for entry hIL-2-anti-HSA A66 (ligand, fused to anti-HSA VHH; also called hIL-2 mutein (L19S, K32E, F42C, V69C, C125S)) APTSSSTKKTQLQLEHLLSDLQMILNGINNYENPKLTRMLTCKFYMPKKATELKHLQCLEEELKPLEECLNLAQSKNFHLRPRDLISNINVIVLELKGSETTFMCEYADETATIVEFLNRWITFSQSIISTLTGSGGSGGSGGSGEVQLVESGGGLVQPGGSLRLSCAASGSTWSINTLAWYRQAPGKQRDLVARISSGGSTYYADSVKGRFTISRDNSKNTLYLQMNSLRAEDTAVYYCYAQSTWYPPSWGQGTLVTVSS equals 0.65

meta.source: patent US20210340208A1
